Source: PubChem BioAssay AID179

Field: pEC50. Provide a value for each of the compounds that follow.
# System: CEM cells HIV-1 protection, formazan growth assay
# Assay remarks: NCI AIDS Antiviral Assay
pEC50: −log10 of the molar value.

Here is how some compounds turned out for pEC50.
Compound: COc1cc(O)c2c(=O)c(OC)c(-c3ccc(OC)c(OC)c3)oc2c1.[Co]
pEC50: < 4.00
//
Compound: CCO[C@H]1O[C@@H]2OC3(C)CCC4[C@H](C)CCC([C@H]1C)[C@]42OO3 (some centres undefined)
pEC50: < 3.70
//
Compound: CC(=O)OC1=NC(C)c2c1cc(OC(C)=O)[nH]c2=O (centres undefined)
pEC50: < 4.84
//
Compound: CC(=O)N1c2ccccc2[C@H]2CCc3c([nH]c4ccccc34)[C@H]21
pEC50: < 4.70
//
Compound: Cc1nnc2cc(C(=O)O)c3ccccc3n2c1=O
pEC50: < 3.70
//
Compound: CCCCCCc1cc(S(=O)(=O)O)c(O)cc1O
pEC50: < 3.70

I'm hoping you can list pEC50 for every compound here, please.
1. O=C(CCc1cc(-c2ccco2)n(-c2ccc([N+](=O)[O-])cc2[N+](=O)[O-])n1)Nc1ccccc1
2. C=C[C@]1(O[Si](C)(C)C)C[C@@]2(C(=O)OCC)C(O)C(=O)N3CCc4cc(OC)c(OC)cc4[C@]312 (some centres undefined)
3. CN(C)CCN(C)P12(Oc3ccccc3O1)Oc1c(Cl)c(Cl)c(Cl)c(Cl)c1O2
4. Cc1ccc(OCC(=O)N2N=C(c3ccccc3)CC2(O)c2ccccc2)cc1 (centres undefined)
5. CCOc1ccccc1NC(=O)CC1SC(=Nc2ccc([N+](=O)[O-])cc2)NC1=O (centres undefined)
6. O=c1cc(N=Nc2ccc(O)cc2)[nH]c(=O)[nH]1

Outgoing:
1: < 4.38; 2: < 3.70; 3: < 4.36; 4: < 4.59; 5: < 3.64; 6: < 3.70

I'm hoping you can list pEC50 for every compound here, please.
1. CCOC(=O)C(=O)C=P(c1ccccc1)(c1ccccc1)c1ccccc1
2. COC(=O)Cc1ccc2c(c1)Sc1ccc(CC(=O)OC)cc1N2C
3. CCC[CH2][Sn]([CH2]CCC)([S]C1=NCCS1)[S]C1=NCCS1
4. c1ccc(N/N=C2\NN=C(c3ccccc3)CS2)cc1
5. CC1=NN(C(=O)CC(=O)Nc2cccc(C)c2)C(=O)C1N=Nc1ccc(S(=O)(=O)c2ccc(N=NC3C(=O)N(C(=O)CC(=O)Nc4cccc(C)c4)N=C3C)cc2)cc1 (centres undefined)
6. CCOc1ccccc1NC(=O)C(=O)C(c1ccccc1)S(=O)(=O)Cc1ccccc1 (centres undefined)
7. COc1ccc(Nc2c(C#N)c3n(c4ccccc24)c2ccccc2[n+]3C)cc1OC

Outgoing:
[4.73, "< 3.70", "< 4.40", "< 4.18", "< 4.30", "< 3.70", "< 3.70"]

I'm hoping you can list pEC50 for every compound here, please.
1. S=c1n(-c2ccc(Cl)cc2)c2nc3ccccc3nc(/c2=N\Nc2ccc(Br)cc2)n1-c1ccccn1
2. CC1CN(c2ccccc2)NC1=O (centres undefined)
3. NC(=O)c1cccc([C@@H]2O[C@H](CO)[C@@H](O)[C@H]2O)c1
4. CCCCC[C@H](O)[C@H](C)C=C1SCCCS1
5. CCOC(=O)c1c(N2CCCC2)nsc1Nc1ccc(F)cc1
6. CC(=O)Nc1ccc(/C=c2\sc3nnc(/C=C/c4ccccc4)n3c2=O)cc1
7. O=C1CCC(c2ccccc2)=NN1c1nsc2ccccc12

Outgoing:
< 4.49
< 3.70
< 3.01
< 3.70
< 3.70
< 4.03
< 4.07

I'm hoping you can list pEC50 for every compound here, please.
1. [CH2+][B-]1(C)n2cc(Br)c[n+]2[B-](C)(C)[n+]2cc(Br)cn21
2. Cc1ccc(C(=O)NC2CCCCC2)cc1N=NN(C)C
3. CCN1CCC(O)(c2ccccc2)C(C(=O)c2ccccc2)C1 (centres undefined)

Outgoing:
< 3.70
< 4.33
< 3.19

I'm hoping you can list pEC50 for every compound here, please.
1. CC(C)(C)N=NNc1cn(C2OC(CO)C(O)C2O)c(=O)[nH]c1=O (centres undefined)
2. COc1ccc(NC(=O)C(=O)NNC(=O)c2sc(NNC(C)=O)nc2C)c([N+](=O)[O-])c1
3. O=c1c(SCc2ccc(Br)cc2)c(SCc2ccc(Br)cc2)cnn1-c1ccccc1
4. Cc1[nH]n(-c2nc3c(c(=O)[nH]2)CCCC3)c(=O)c1CCO
5. CCOC(=O)c1cc2sc(NC(=O)c3ccco3)nc2o1

Outgoing:
< 3.14
< 4.52
< 4.90
< 3.70
3.74
